From: patent US20240158457A1

Readings of EC50 for the listed binders
# tested_target: T1, IL-18Rα-Fc (CD218a protein, Fc tag; ECD 19-329; ACROBiosystems, Inc, Cat. No. IL1-H5259) (UniProt Q13478 19-329)
# T1 chain: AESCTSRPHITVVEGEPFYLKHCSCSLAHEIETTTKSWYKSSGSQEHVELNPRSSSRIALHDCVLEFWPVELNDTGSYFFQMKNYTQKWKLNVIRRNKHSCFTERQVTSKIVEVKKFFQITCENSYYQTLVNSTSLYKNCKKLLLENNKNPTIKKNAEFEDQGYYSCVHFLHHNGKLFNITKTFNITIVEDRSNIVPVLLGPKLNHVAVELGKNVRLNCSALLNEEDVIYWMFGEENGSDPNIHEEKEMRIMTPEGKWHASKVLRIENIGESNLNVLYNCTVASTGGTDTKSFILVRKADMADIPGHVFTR
# experiment_description: ELISA
Where no end group is shown, it is not given here.
Only the number, expressed in nM, is required.

[
  {
    "binder": "GGICWVPFHYLDELMCTGG-biotin (cysteine pairing not given here) [biotinylated 4D07]",
    "display_unit": "nM",
    "EC50": 0.16
  }
]

Pending binder:
QUERY: What does the record list as EC50 for GGFFECFYSPGHEWCIPSGG-biotin (cysteine pairing not given here) [biotinylated 7C06] ?
RESULT: 0.26
